Source listed as PubChem BioAssay (EPA / NIEHS).

experiment.summary: APR_HepG2_MicrotubuleCSK_72hr: Apredica 72-hour HepG2 Assay for Microtubule CSK Stabilty (AID 2282919)
condition.info: HepG2 microtubule cytoskeleton, high-content imaging, actives raise or lower the signal
Protocol: APR_HepG2_72hr is a cell-based, multiplexed-readout assay that uses HepG2, a human liver cell line, with measurements taken at 72 hours after chemical dosing in a 384-well plate.APR_HepG2_MicrotubuleCSK_72hr is one of 10 assay component(s) measured or calculated from the APR_HepG2_72hr assay. […] This assay endpoint, APR_HepG2_MicrotubuleCSK_72hr, was analyzed with bidirectional fitting relative to DMSO as the negative control and baseline of activity. […]
Active and inactive are the calls of the source. How the source made its calls: active means hit-call score of the fitted dose curve at least 0.9, where 1 is the maximum; inactive means score below 0.9.
Write down one outcome, taken from active, inactive

• C[Si]1(C)O[Si](C)(C)O[Si](C)(C)O[Si](C)(C)O1 = inactive
• Nc1ccccc1N = inactive
• CCCCCCC(=O)OCC = inactive
• Cc1ccc2ncccc2c1 = inactive
• Oc1ccc2ccccc2c1N=Nc1ccccc1 = inactive
• COc1ccc(S(=O)(=O)N2C(=O)[C@@](c3ccccc3OC)(N3C[C@H](O)C[C@H]3C(=O)N(C)C)c3cc(Cl)ccc32)c(OC)c1 = inactive

Just curious, what result did CC(=O)C(C)=CC1C(C)=CCCC1(C)C (stereo unspecified) get here?
inactive

Quick one: `NCC1(Cc2noc(=O)[nH]2)CCCCC1`
inactive

Quick one: `CCCCOC(=O)CCCCCCCCC(=O)OCCCC`
inactive

###

target: human Dopamine Transporter (DAT), SLC6A3 (gene 6531)
experiment.summary: NVS_TR_hDAT: NovaScreen (NVS) Transporter Assay for human Dopamine Transporter (DAT) (AID 2283374);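 further: activity means loss of bound radioligand signal relative to DMSO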
Records with an inconclusive call do not appear. Activity calls are given as the source filed them. How the source made its calls: active means hit-call score of the fitted dose curve at least 0.9, where 1 is the maximum; inconclusive means response in the unintended direction; inactive means score below 0.9.
Write down one outcome, taken from y (active), n (inactive)

Would you please look over these solved cases?
* Cc1ccc2ncccc2c1 | n
* O=C(N[C@@H](Cc1ccccc1)[C@@H](O)C(=O)N1C[C@@H](O)[C@@H](O)C1)c1cc2cc(Cl)ccc2[nH]1 | y

Just curious, what result did `CCCc1cc(=O)[nH]c(=S)[nH]1` get here?
n

Quick one: `Cc1ccc(C)c(O)c1C`
y

Quick one: `O=C(O)Cc1ccccc1Nc1c(Cl)cccc1Cl`
n

###

Read-out: matrix metalloproteinase-10 (MMP10), MMP10 (gene 4319)
experiment.summary: LTEA_HepaRG_MMP10: Life Technologies and Expression Analysis (LTEA) Assay for matrix metalloproteinase-10 (MMP10) using HepaRG (AID 2283517)
condition.info: mRNA level, 48 h; actives raise or lower the signal
Activity calls are given as the source filed them. Rule for the calls: active = hit-call score of the fitted dose curve at least 0.9, where 1 is the maximum; inactive = score below 0.9.
Write down one outcome, taken from 1 = active, 0 = inactive

• OC[C@@H](O)[C@@H](O)[C@H](O)[C@H](O)CO = 0
• CCCCCCCCCCCC(=O)OC = 0
• C[Si]1(C)O[Si](C)(C)O[Si](C)(C)O[Si](C)(C)O1 = 0
• CCCCCCCCCCC = 0
• CN[C@H]1CC[C@@H](c2ccc(Cl)c(Cl)c2)c2ccc(S(N)(=O)=O)cc21 = 1
• COc1ccc(S(=O)(=O)N2C(=O)[C@@](c3ccccc3OC)(N3C[C@H](O)C[C@H]3C(=O)N(C)C)c3cc(Cl)ccc32)c(OC)c1 = 1

Just curious, what result did `CCCc1cc(=O)[nH]c(=S)[nH]1` get here?
0

Quick one: `CCCCCCCCCCCCCO`
0

Quick one: `CCOC(=O)C(C)(C)Oc1ccc(Cl)cc1`
0

Quick one: `CN1CCN(Cc2cc(-c3ccc4[nH]c(=O)oc4c3)co2)[C@@H](c2ccc(F)cc2)C1`
0

Quick one: `COC(=O)c1ccc(O)cc1`
0

Quick one: `CC=Cc1ccc(O)c(OC)c1`
0

Quick one: `Cc1cccc(C)c1O`
0

Quick one: `CCCCCCCCCCCCCCCCCC(=O)O`
0

Quick one: `COc1cc(S(=O)(=O)O)c(C)cc1N=Nc1c(O)ccc2cc(S(=O)(=O)O)ccc12`
0

Quick one: `Cc1ccc(C(C)C)c(O)c1`
0

Quick one: `CC(C)c1ccc(C(=O)N=C(N)N)cc1S(C)(=O)=O`
1

Quick one: `C=CCOC(=O)c1ccccc1C(=O)OCC=C`
0

Quick one: `CCCCCCCC=O`
0

Quick one: `Oc1ccc2ccccc2c1N=Nc1ccccc1`
0
